Data provenance is patent EP4644419A1.

Target: T1, human CD112R antigen protein huCD112R-His (Acro Biosysterm, PVG-H52H4) (human, UniProt Q6DKI7 41-171)
T1 construct: purchased; also called human antigen protein; not shown: His tag
T1 sequence (looked up): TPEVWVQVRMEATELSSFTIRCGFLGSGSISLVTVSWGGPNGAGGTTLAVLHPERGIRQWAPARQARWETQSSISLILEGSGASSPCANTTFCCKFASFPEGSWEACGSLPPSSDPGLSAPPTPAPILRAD
Test: ELISA, huCD112R-His coated on plate
Measured Quantity: pEC50
Please report pEC50 as the negative decimal logarithm of the molar concentration, giving only the number.

Solved entries (count: 2):
>>> reported("C1 (antibody, human IgG1, kappa, V domains shown) VH: QVHLQQSGPELVKPGASLKISCKASGYTFTDYYLNWVKQRPGQGLEWIGWIFPGSESTFYNEKFKGKATLTVDKSSSTAYMLLNSLTSEDSAVYFCTRDGGLRGPFDYWGQGTTLTVSS VL: DIQLTQSPSSLSASLGGKVTITCKASQDINKYIAWCQHKPGKGPRLLIHYTSTLHPGIPSRFSGSGSGRDYSFSISNLEPEDSATYYCLQYDYLLTFGGGTKLEIKR")
10.12
>>> reported("C114 (antibody, human IgG1, kappa, V domains shown) VH: QVQLQQSGAELVRPGTSVKMSCKAAGYTFTNSWINWVKQRPGHGLEWIGDIYPGNTFPNYNEKFKGKATLTADTSSSTAYMQLSSLTSEDSAVYYCTGGYFDVWGTGTTVTVSS VL: DIVMTQSPSSLSVSAGEKVTMSCKSSQSLLNSGNQKNFLAWYQQKPGQPPKLLIFGASTRQSGVPDRFTGSGSGTDFTLTISSVQAEDLAVYYCQNDHSYPYTFGGGTKLEMKR")
10.38

We next turn to a different binder, shown below.
Request: Entry C57 (antibody, human IgG1, kappa, V domains shown) VH: EVQLQQSGPVLVKPGASVKMSCKASGYIFTDYYMHWVKQSHGKSLEWIGIINPYNGDTSYNQKFKDKATLTVDKSSSTAYMELNSLTSEDSAVYYCARDSSNVGNAMDYWGQGTSVTVSS VL: DIQMTQTTSSLSASLGDRVTISCRASQDISNYLNWYLQKPDGTIKLLIYYSSRLHSGVPSRFSGSGSGTDYSLTISNLEQEDIATYFCQQGYTLPRTFGGGTKLEIIR has what pEC50?
Result: 10.47
